Cited source: ChEMBL document CHEMBL1961873

# Experimental system: Tyrosine-protein kinase Lck (Homo sapiens) (UniProt P06239);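 note: reported values are mean percent inhibition of Lck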
# Sequence (P06239 2-509 limits assumed): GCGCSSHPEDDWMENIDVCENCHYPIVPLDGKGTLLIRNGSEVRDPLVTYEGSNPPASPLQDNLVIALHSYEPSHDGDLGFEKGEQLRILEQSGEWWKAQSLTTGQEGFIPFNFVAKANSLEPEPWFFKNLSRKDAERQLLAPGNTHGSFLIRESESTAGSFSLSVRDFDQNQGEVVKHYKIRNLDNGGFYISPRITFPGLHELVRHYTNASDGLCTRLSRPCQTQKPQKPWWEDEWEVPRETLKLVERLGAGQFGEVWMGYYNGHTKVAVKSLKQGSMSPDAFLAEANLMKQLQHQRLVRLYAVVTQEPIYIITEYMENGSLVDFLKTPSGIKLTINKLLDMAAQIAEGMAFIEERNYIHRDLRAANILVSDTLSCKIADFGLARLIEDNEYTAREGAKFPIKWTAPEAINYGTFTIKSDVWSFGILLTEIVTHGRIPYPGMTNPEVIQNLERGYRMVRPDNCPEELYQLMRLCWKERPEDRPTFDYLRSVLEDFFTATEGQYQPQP
# Settings: at 0.1 µM
In this section we review reported inhibition values for a set of molecules.
Property: inhibition (%)

| Cpd smiles | Property | Observed measurement |
| --- | --- | --- |
| O=C(Nc1n[nH]c2nnc(-c3cccnc3)cc12)C1CC1 | inhibition | 1.03 |
| COc1cc(N2CCN(C(C)C)CC2)ccc1Nc1nc(Nc2cccc3ncccc23)c2cc[nH]c2n1 | inhibition | 0.42 |
| CC(C)c1ccc(-c2cc(-c3c[nH]nc3-c3ccccn3)ccn2)cc1 | inhibition | 1.31 |
| Fc1ccc(Nc2nccc(-c3c(-c4ccc(C(F)(F)F)cc4)nn4ncccc34)n2)cc1F | inhibition | 3.17 |
| COc1ccccc1-c1cc(/C=C2\C(=O)Nc3ncc(Br)cc32)cc(Br)c1O | inhibition | 2.46 |
| Cc1ccc(-c2cc3c(NC(=O)C4CC4)ncnc3o2)cc1 | inhibition | 2.92 |
| CCS(=O)(=O)c1ccc(OC)c(Nc2ncc(-c3cccc(F)c3)o2)c1 | inhibition | 20.4 |
| CS(=O)(=O)Nc1ccc(-c2ccc3c(NC(=O)C4CC4)n[nH]c3c2)cc1 | inhibition | 2.88 |
| Cc1c2ccc(N(C)c3ccnc(Nc4cccc(S(N)(=O)=O)c4)n3)cc2nn1C | inhibition | 20.3 |
| Cc1cc(O)cc(C)c1/C=C/c1cncc(C(N)=O)c1 | inhibition | 8.78 |
| NS(=O)(=O)c1cccc(N/C=C2\C(=O)Nc3ccccc32)c1 | inhibition | 2.31 |
| O=C(O[C@H]1CN[C@H](C#Cc2cc3ncnc(Nc4ccc5c(cnn5Cc5ccccc5)c4)c3s2)C1)N1CCOCC1 | inhibition | 0.34 |
| CCCNc1cccc(-n2ncc3c(N/N=C/c4ccncc4)ncnc32)c1 | inhibition | 23.1 |
| FC(F)(F)CNc1nccc(-c2cnn3ncccc23)n1 | inhibition | 1.7 |
| COc1cccc(-n2ncc3c(N/N=C/c4ccc(C(=O)NCCN(C)C)cc4)ncnc32)c1 | inhibition | 72.9 |
| CNC(=O)c1sc(-n2cnc3cc(OC)c(OC)cc32)cc1OCc1ccccc1C(F)(F)F | inhibition | 3.6 |
| c1cnn2ncc(-c3ccnc(NCCCN4CCOCC4)n3)c2c1 | inhibition | 1.55 |
| O=C(O[C@H]1CN[C@H](C#Cc2cc3ncnc(Nc4ccc5c(ccn5Cc5cc(F)ccc5F)c4)c3s2)C1)N1CCOCC1 | inhibition | 2.27 |
| COc1ccc(-c2nn3ncccc3c2-c2ccnc(Nc3ccc(F)c(F)c3)n2)cc1 | inhibition | 7.63 |

---

# Experimental system: SRSF protein kinase 3 (Homo sapiens);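 note: mean of replicate inhibition values against MSSK1 kinase, profiled within the GSK PKIS kinase inhibitor set screen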
# Settings: at 0.1 µM
Each entry below carries its reported inhibition.

| Compound | inhibition [%] |
| --- | --- |
| CCn1c(-c2nonc2N)nc2cncc(C(=O)NCCNC)c21 | -3.21 |
| CC1=C(C(=O)Nc2ccc3[nH]nc(C)c3c2)C(c2ccc(C(F)(F)F)cc2)CC(=O)N1 (centres undefined) | 1.18 |
| COC(=O)Nc1nc2ccc(Oc3ccc(NC(=O)Nc4cc(C(F)(F)F)ccc4F)cc3)cc2s1 | 0.81 |
| c1ccc(-c2n[nH]cc2-c2ccnc(-c3ccc(OCCn4ccnc4)cc3)c2)nc1 | -3.24 |
| CCCNc1cccc(-n2ncc3c(N/N=C/c4ccncc4)ncnc32)c1 | -0.81 |
| O=C(O[C@H]1CN[C@H](C#Cc2cc3ncnc(Nc4ccc(OCc5cccc(F)c5)c(Cl)c4)c3s2)C1)N1CCOCC1 | -1.6 |
| COc1cc(N2CCN(C(C)C)CC2)ccc1Nc1nc(Nc2cccc3ncccc23)c2cc[nH]c2n1 | -0.27 |
| NC(=O)c1ccc2c(-c3ccnc(NCCCO)n3)c(-c3ccc(F)cc3)nn2c1 | 1.36 |
| COc1c(C(N)=O)cc(-c2ccc(Cl)cc2)cc1-c1ccc(S(N)(=O)=O)cc1 | 2.9 |
| CNC(=O)c1ncccc1Nc1nc(Nc2cc3c(cc2OC)CCCN3C(=O)CN(C)C)nc2[nH]ccc12 | 0.37 |
| CN(c1ccc(NC(=O)NCCN2CCOCC2)cc1)c1ccnc(Nc2ccc(CS(C)(=O)=O)cc2)n1 | 0.77 |
| Cn1c(-c2nonc2N)nc2cnccc21 | -1.11 |
| COc1cc(Nc2ncc(-c3ccccc3)o2)cc(OC)c1 | -1.19 |
| CS(=O)(=O)CCNCc1ccc(-c2ccc3ncnc(Nc4ccc(OCc5ccccc5)cc4)c3c2)o1 | -0.49 |
| CS(=O)(=O)CCNCc1ccoc1-c1ccc2ncnc(Nc3ccc(OCc4ccccc4)cc3)c2c1 | -1.87 |
| OCCCNc1nccc(-c2c(-c3ccc(F)cc3)nn3cc(C(F)(F)F)ccc23)n1 | 1.09 |
| COc1cccc(-n2ncc3c(N/N=C/c4ccc(C(=O)NCCN(C)C)cc4)ncnc32)c1 | 1.28 |
| NS(=O)(=O)c1cccc(N/C=C2\C(=O)Nc3ccccc32)c1 | -0.21 |
| N#Cc1ccc2c(-c3ccnc(NC4CC4)n3)c(-c3ccc(F)cc3)nn2c1 | -2.45 |
